# Inhibition rate % per record follows
target: a-glucosidase (Saccharomyces cerevisiae, UniProt P53341); format: biochemical; settings: compound at 250 μmol/L; 0.5 U/ml enzyme, 0.6 mM pNaGP, pH 6.8, 37° C.
Sequence (P53341 whole entry): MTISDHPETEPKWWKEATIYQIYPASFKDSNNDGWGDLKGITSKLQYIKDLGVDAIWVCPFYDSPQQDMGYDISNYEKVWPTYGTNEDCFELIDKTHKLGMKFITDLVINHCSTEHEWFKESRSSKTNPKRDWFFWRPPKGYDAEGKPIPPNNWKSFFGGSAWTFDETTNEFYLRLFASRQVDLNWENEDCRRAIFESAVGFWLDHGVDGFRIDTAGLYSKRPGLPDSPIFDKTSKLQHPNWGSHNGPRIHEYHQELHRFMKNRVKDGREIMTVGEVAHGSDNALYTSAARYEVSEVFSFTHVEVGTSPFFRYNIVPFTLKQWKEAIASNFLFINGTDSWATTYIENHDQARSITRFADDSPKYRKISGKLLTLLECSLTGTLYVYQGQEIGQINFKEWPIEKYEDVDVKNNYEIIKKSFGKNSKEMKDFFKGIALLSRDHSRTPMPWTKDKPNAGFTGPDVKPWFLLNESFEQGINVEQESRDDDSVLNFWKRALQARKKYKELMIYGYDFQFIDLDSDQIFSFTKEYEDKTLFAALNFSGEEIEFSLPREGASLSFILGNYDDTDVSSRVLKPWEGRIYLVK

query.smiles	unit.string	Inhibition rate %
Cc1ncc(CO)c2cc(C(=O)Nc3ccc(F)cc3)c(=Nc3cccc(C(F)(F)F)c3)oc12	%	23.042
COc1cccc(N=c2oc3c(C)ncc(CO)c3cc2C(=O)Nc2ccc(F)cc2)c1	%	30.769
Cc1ncc(CO)c2cc(C(=O)Nc3ccc(F)cc3)c(=Nc3cc(Br)cc(Br)c3)oc12	%	94.686
Cc1ncc(CO)c2cc(C(=O)Nc3ccc(F)cc3)c(=Nc3cc(F)cc(F)c3)oc12	%	99.916
Cc1ncc(CO)c2cc(C(=O)Nc3ccc(F)cc3)c(=Nc3cc(O)cc(CO)c3)oc12	%	45.254
Cc1ncc(CO)c2cc(C(=O)Nc3ccc(F)cc3)c(=Nc3ccc(F)c(F)c3)oc12	%	86.819
Cc1ncc(CO)c2cc(C(=O)Nc3ccc(F)c(Cl)c3)c(=Nc3cccc(CO)c3)oc12	%	89.604
Cc1ncc(CO)c2cc(C(=O)Nc3ccc(F)c(Cl)c3)c(=Nc3cc(Br)cc(Br)c3)oc12	%	56.656

* * *

target: UniProtKB P53341
pIC50: −log10 of the molar value.
Where pIC50 equals or exceeds 4, the correct label is Yes; where it does not, the label is No.

query.smiles	class.label
Cc1ncc(CO)c2cc(C(=O)Nc3ccc(F)cc3)c(=Nc3ccc(F)c(F)c3)oc12	Yes
Cc1ncc(CO)c2cc(C(=O)Nc3ccc(F)c(Cl)c3)c(=Nc3cc(F)cc(F)c3)oc12	Yes
Cc1ncc(CO)c2cc(C(=O)Nc3ccc(F)c(Cl)c3)c(=Nc3cccc(CO)c3)oc12	No
Cc1ncc(CO)c2cc(C(=O)Nc3ccc(F)cc3)c(=Nc3cc(F)cc(F)c3)oc12	Yes
Cc1ncc(CO)c2cc(C(=O)Nc3ccc(F)cc3)c(=Nc3cc(Br)cc(Br)c3)oc12	Yes
Cc1ncc(CO)c2cc(C(=O)Nc3ccc(F)cc3)c(=Nc3ccc(F)cc3)oc12	Yes
